# PROTOCOL: qHTS assay to test for compound auto fluorescence at 535 nm (green) in HEK293 cells (AID 720680); also: % is scaled to controls: 0 for no effect and ±100 for the full control effect
# RUN_PARAMETERS: green autofluorescence 485/535 nm; series mostly up to 91.3 µM
Activity calls are given as the source filed them. Calls follow the shape of the dose curve; as a rule, active = well fitted curve in the direction sought with a large enough effect in the repeat runs; inconclusive = weak or mixed curves; inactive = flat fitted curve, though single readings scatter.
MEASUREMENT_TYPE: fluorescence, % of fluorescein

Example results:
1) C[Si](C)(C)C :: inactive
2) CC(C)(C)NC(N)=O :: inactive
3) O=C(O)CCSSCCC(=O)O :: inactive
4) CNS(=O)(=O)CCc1ccc2[nH]cc(C3CCN(C)CC3)c2c1 :: inactive
5) C=C(C)C(=O)OCCN(CC)CC :: inactive

Give me fluorescence, % of fluorescein for each of these compounds, listed below.
1. CC(C)NCC(O)COc1ccc(COCCOC(C)C)cc1 (centres undefined)
2. CCOc1cc(NC(C)=O)ccc1C(=O)OC
3. CCCCNc1ccc(C(=O)OCCN(C)C)cc1
4. CC(C)c1ccc2cc(C(C)C)ccc2c1
5. Cc1ccc2c(c1)OCC(=O)CO2
6. N[C@@H](CCC(=O)N[C@@H](CS)C(=O)NCC(=O)O)C(=O)O
7. CCC(CC)CO
8. O=C(CS(=O)Cc1ccco1)NC/C=C\COc1cc(CN2CCCCC2)ccn1 (centres undefined)

["inactive", "inactive", "-0.108% [at 18.6 µM] (inactive)", "inactive", "inactive", "inactive", "inactive", "inactive"]

Name the reported fluorescence, % of fluorescein value associated with the compound CC(=O)N[C@@H](CCC(=O)O)C(=O)O
inactive

----------
# PROTOCOL: qHTS assay to identify small molecule antagonists of the constitutive androstane receptor (CAR) signaling pathway - cell viability counter screen (AID 1224837); also: % is scaled to controls: 0 for no effect and ±100 for the full control effect; nearly all actives have a fitted effect of over 45% in size
# RUN_PARAMETERS: HepG2-CYP2B6-hCAR viability, CellTiter-Fluor, 23 h, co-treated with 50 nM CITCO; series mostly up to 92.4 µM
# Method: National Center for Advancing Translational Sciences [NCATS] NIH Chemical Genomics Center [NCGC] U.S. Environmental Protection Agency [EPA] National Institutes of Environmental Health Sciences [NIEHS] National Toxicology Program [NTP] […] A double-stable (hCAR and CYP2B6-2.2kb) transfected cell line, derived from human hepatoma (HepG2) cells, was utilized for the duration of the quantitative high-throughput screens. […] The fluorescence intensity in the plates was then measured using a ViewLux plate reader.
Records with an inconclusive call do not appear. The source made the active and inactive calls. The call rests on the fitted dose curve; in most records, active means well fitted cell-killing curve with a large enough effect in the repeat runs; inconclusive means weak or mixed curves, or effect the other way; inactive means flat fitted curve, though single readings scatter.
MEASUREMENT_TYPE: activity change, negative = cytotoxicity

Consider the worked cases shown below.
1. CC(C)NCC(O)COc1ccc(COCCOC(C)C)cc1 (stereo unspecified) :: inactive
2. CCCCOCCOC(=O)COc1nc(Cl)c(Cl)cc1Cl :: inactive
3. CCOc1cc([N+](=O)[O-])c(OCC)cc1N1CCOCC1 :: inactive
4. CNC(=O)[C@H]1O[C@@H](n2cnc3c(NCc4cc(Cl)ccc4OCc4cc(C)no4)ncnc32)[C@H](O)[C@@H]1N :: inactive
5. O=Cc1ccc(Cl)c(Cl)c1 :: inactive

Turning now to a further compound:
activity change, negative = cytotoxicity for N[C@@H](CCC(=O)N[C@@H](CS)C(=O)NCC(=O)O)C(=O)O ?
7.5% [at 19 µM] (inactive)

----------
# PROTOCOL: Caspase-3/7 induction in HepG2 cells by small molecules, qHTS cell viability counter screen (AID 1346981); also: % is scaled to controls: 0 for no effect and ±100 for the full control effect; nearly all actives have a fitted effect of over 30% in size
# RUN_PARAMETERS: CellTiter-Fluor fluorescence, 17 h; series mostly up to 92.4 µM
Results filed as inconclusive are left out. Calls of active or inactive are those of the source. The call rests on the fitted dose curve; in most records, active means well fitted cell-killing curve with a large enough effect in the repeat runs; inconclusive means weak or mixed curves, or effect the other way; inactive means flat fitted curve, though single readings scatter.
MEASUREMENT_TYPE: activity change, negative = cytotoxicity

Check out these entries, answers already filled in.
1. CCO[Si](CCCS)(OCC)OCC :: inactive
2. N[C@@H](CCC(=O)N[C@@H](CS)C(=O)NCC(=O)O)C(=O)O :: -0.0408% [at 19 µM] (inactive)
3. CC(C)CC(=O)O :: inactive
4. COc1ccc(Br)c(C)c1 :: inactive
5. C=C(C)C(=O)OCCNC(C)(C)C :: inactive

Batch request: activity change, negative = cytotoxicity for each of the following molecules.
1. COc1cc2c(cc1OC)[C@@H]1CC(=O)[C@@H](CC(C)C)CN1CC2
2. C[Si](C)=O

inactive
6.01% [at 8.39 µM] (inactive)

Where do these numbers come from? They come from PubChem BioAssay (Tox21).
